target: human GlyT1c transporter (Homo sapiens, UniProt P48067); construct: expressed in transfected cells; host or cells: CHO cells (recombinant; line hGlyT1c_5_CHO is named for the uptake assay); assay: Radioligand binding assay using recombinant CHO cell membranes expressing human GlyT1; details: radioligand binding to human GlyT1c transporter-expressing membranes
Sequence (P48067 whole entry): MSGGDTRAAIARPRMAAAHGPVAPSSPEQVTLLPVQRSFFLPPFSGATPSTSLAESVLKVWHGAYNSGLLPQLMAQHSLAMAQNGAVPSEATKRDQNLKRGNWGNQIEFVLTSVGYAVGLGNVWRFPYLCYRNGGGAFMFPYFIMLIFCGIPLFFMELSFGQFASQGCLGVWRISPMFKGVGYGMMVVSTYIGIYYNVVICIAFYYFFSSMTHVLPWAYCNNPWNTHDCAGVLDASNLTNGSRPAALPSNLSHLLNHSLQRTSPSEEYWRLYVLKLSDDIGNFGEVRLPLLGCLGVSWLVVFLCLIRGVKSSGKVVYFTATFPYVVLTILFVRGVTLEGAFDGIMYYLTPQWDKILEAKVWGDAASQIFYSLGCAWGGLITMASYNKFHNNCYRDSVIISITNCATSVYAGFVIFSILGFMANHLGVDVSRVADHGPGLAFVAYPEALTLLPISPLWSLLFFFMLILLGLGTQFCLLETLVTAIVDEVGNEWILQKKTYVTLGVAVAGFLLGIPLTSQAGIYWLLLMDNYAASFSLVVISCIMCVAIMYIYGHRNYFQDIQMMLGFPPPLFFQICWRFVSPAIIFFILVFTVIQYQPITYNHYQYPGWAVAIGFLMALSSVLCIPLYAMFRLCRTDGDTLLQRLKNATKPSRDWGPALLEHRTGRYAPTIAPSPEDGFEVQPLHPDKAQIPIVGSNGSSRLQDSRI
pKi: −log10 of the molar value.
pKi: recorded values
MEASURED_ATTRIBUTE: pKi

COMPOUND | RESULT
Cn1cnc(S(=O)(=O)N2C[C@@H](NCc3ccc(C(F)(F)F)cc3Cl)[C@H](c3ccc(F)cc3)C2)c1 (relative stereo) [Example 150] | ≥ 9.00
Cn1cnc(S(=O)(=O)N2C[C@@H](Nc3ccc(Cl)c(OC(F)(F)F)c3)[C@H](c3ccc(F)cc3)C2)c1 (relative stereo) | ≥ 7.00
Cn1cnc(S(=O)(=O)N2C[C@@H](Nc3ccccn3)[C@H](c3ccccc3)C2)c1 (relative stereo) | ≥ 5.00
Cn1cnc(S(=O)(=O)N2C[C@@H](C(=O)NCc3cccc(C(F)(F)F)c3)[C@H](c3ccc(F)cc3)C2)c1 (relative stereo) | ≥ 6.00
CCOc1cc(N[C@H]2CN(S(=O)(=O)c3cn(C)cn3)C[C@@H]2c2ccccc2)ncn1 | ≥ 6.00
Cn1cnc(S(=O)(=O)N2C[C@@H](C(=O)Nc3ccccc3)[C@H](c3ccc(F)cc3)C2)c1 (relative stereo) | ≥ 5.00
CCOCCCN[C@H]1CN(S(=O)(=O)c2cn(C)cn2)C[C@@H]1c1ccccc1 | ≥ 6.00
Cn1cnc(S(=O)(=O)N2C[C@@H](NCc3ccc(Cl)cc3Cl)[C@H](c3ccccc3)C2)c1 (relative stereo) | ≥ 8.00
Cc1cccc(C(=O)N[C@@H]2CN(S(=O)(=O)c3cn(C)cn3)C[C@H]2c2ccccc2)c1 (relative stereo) | ≥ 5.00
Cn1cnc(S(=O)(=O)N2CC(Nc3ccc(Cl)c(C(F)(F)F)c3)C(c3ncco3)C2)c1 (centres unmarked) | ≥ 6.00
CCCCC(=O)N[C@H]1CN(S(=O)(=O)c2cn(C)cn2)C[C@@H]1c1ccccc1 | ≥ 5.00
Cn1cnc(S(=O)(=O)N2C[C@@H](CNc3ccc(C(F)(F)F)cc3)[C@H](c3ccc(F)cc3)C2)c1 (relative stereo) | ≥ 7.00
Cn1cnc(S(=O)(=O)N2C[C@@H](Nc3ccc(F)cc3)[C@H](c3ccccc3F)C2)c1 (relative stereo) | ≥ 6.00
O=S(=O)(N1CCCC1)N1CC(Nc2ccc(F)c(F)c2)C(c2ccccc2)C1 (centres unmarked) | ≥ 5.00
Cn1cnc(S(=O)(=O)N2C[C@@H](Nc3ccc4ncccc4c3)[C@H](c3ccccc3)C2)c1 (relative stereo) | ≥ 5.00
Cn1cnc(S(=O)(=O)N2C[C@H](Nc3cccc(C(C)(O)C(F)(F)F)c3)[C@@H](c3ccccc3)C2)c1 (some centres unmarked) | ≥ 7.00
Cn1cnc(S(=O)(=O)N2C[C@@H](Nc3ccccc3)[C@H](c3cccc(F)c3)C2)c1 (relative stereo) | ≥ 5.00
